- Tested on: Humicola sp.
- experiment: minimal inhibiting concentration (MIC), filter disc agar plate test
- Type: cell-based
- run.conditions: Sabouraud agar, three days incubation
measurement.label: MIC

Consider the worked cases shown below.
# compound COCCN1CSC(=S)N(CCOC)C1 [Ex. 2] ; its MIC = < 0.005 % conc.

# compound COCCCN1CSC(=S)N(CCCOC)C1 [Ex. 1] ; its MIC = 0.01 % conc.

More entries:
# compound S=C1SCN(Cc2ccccc2)CN1Cc1ccccc1 [A, reference compound] ; its MIC = > 1 % conc.

# compound OCCN1CSC(=S)N(CCO)C1 [B, reference compound] ; its MIC = 0.1 % conc.
